Test system: 598228-144-R-J1-PDC complex spheroids, viability
assay remarks: Anticancer human tumor 598228-144-R-J1-PDC patient-derived serous endometrial adenocarcinoma cell line growth inhibition [CLK]
reported conditions: compound alone; run of 09/19/2023
pIC50: −log10 of the molar value.
readout type: pIC50

Ask | What value of pIC50 has been reported for the following compound? CNC(=O)c1ccc(Nc2nc(OC3CCCC3)c3c(-c4ccc5nc(C)oc5c4)c[nH]c3n2)c(OC)c1
Reply | < 5.00

====

Tested on: 598228-144-R-J1-PDC complex spheroids, viability
assay remarks: Anticancer human tumor 598228-144-R-J1-PDC cell line growth inhibition [CLK]; active = viability on the fitted dose curve at most 10% of control; inactive = the rest;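 also: spheroids exposed to compounds for seven days before readout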
reported conditions: second compound 0.0316 µM; first compound 3.16 µM
Assign a class; possible classes are class 1 (active), class 0 (inactive)

compound	study target	classification
CC(Nc1ccc2c(c1)OCCn1cc(N3C(=O)OCC3C(F)F)nc1-2)C(N)=O (stereo not drawn) + CN1CCN(c2cc(C(=O)Nc3cc4cc(-c5cnn(C)c5)ccc4cn3)ccn2)CC1	598228-144-R-J1-PDC complex spheroids, viability	class 0

Ask | Write down the call the test reported for this compound. Item: O=c1[nH]cc(F)c(=O)[nH]1 + CNC(=O)c1ccc(Nc2nc(OC3CCCC3)c3c(-c4ccc5nc(C)oc5c4)c[nH]c3n2)c(OC)c1
Reply | class 0

Ask | Now this one: COc1cccc2c1C(=O)c1c(O)c3c(c(O)c1C2=O)CC(O)(C(=O)CO)CC3OC1CC(N)C(O)C(C)O1 (stereo not drawn) + CN1CCN(c2cc(C(=O)Nc3cc4cc(-c5cnn(C)c5)ccc4cn3)ccn2)CC1
Reply | class 1
